The values you see were collected from PubChem BioAssay (EPA / NIEHS).

read-out: Cytochrome P450 3A7 (Homo sapiens) (UniProt P24462); assay: LTEA_HepaRG_CYP3A7: Life Technologies and Expression Analysis (LTEA) Assay for CYP3A7 using HepaRG (AID 2283492); conditions: mRNA level, 48 h; actives raise or lower the signal
Sequence (P24462 whole entry, looked up): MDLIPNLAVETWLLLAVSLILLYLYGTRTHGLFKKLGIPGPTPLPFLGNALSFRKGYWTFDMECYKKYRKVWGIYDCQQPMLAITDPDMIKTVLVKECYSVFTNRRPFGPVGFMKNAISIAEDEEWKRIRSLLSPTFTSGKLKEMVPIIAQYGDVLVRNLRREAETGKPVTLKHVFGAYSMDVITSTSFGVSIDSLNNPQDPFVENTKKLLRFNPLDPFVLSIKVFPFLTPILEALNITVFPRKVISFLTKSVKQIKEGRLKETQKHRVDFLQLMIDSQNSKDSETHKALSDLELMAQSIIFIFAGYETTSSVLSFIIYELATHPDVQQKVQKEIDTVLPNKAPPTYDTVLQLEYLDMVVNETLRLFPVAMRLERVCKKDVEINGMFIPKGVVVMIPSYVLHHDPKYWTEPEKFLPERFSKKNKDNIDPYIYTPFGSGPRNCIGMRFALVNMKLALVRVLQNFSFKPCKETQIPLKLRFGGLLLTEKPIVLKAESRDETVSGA
The source made the active and inactive calls. How the source made its calls: active means hit-call score of the fitted dose curve at least 0.9, where 1 is the maximum; inactive means score below 0.9.
// classify into active, inactive

Here are 10 compounds together with their reported answers.
compound	class_name
N#Cc1c[nH]cc1-c1cccc2c1OC(F)(F)O2	inactive
Cc1ccc(N=CN(C)C=Nc2ccc(C)cc2C)c(C)c1	inactive
CCCN(CC)CC1COC2(CCC(C(C)(C)C)CC2)O1 (stereo not drawn)	inactive
Nc1c(Cl)c(F)nc(OCC(=O)O)c1Cl	inactive
CCOP(=O)(OCC)Oc1nc(Cl)c(Cl)cc1Cl	active
N#CN=C1SCCN1Cc1ccc(Cl)nc1	inactive
CC(C)Oc1cccc(NC(=O)c2ccccc2C(F)(F)F)c1	inactive
CS(=O)(=O)c1ccc(C(=O)C2C(=O)CCCC2=O)c([N+](=O)[O-])c1	inactive
CC(C)N1C(=O)c2ccccc2NS1(=O)=O	inactive
CCSC(=O)N1CCCCCC1	inactive

Task item: Could you check what this test reported for CN/C(=N\[N+](=O)[O-])NCc1cnc(Cl)s1 ?
Reply: inactive

Task item: Could you check what this test reported for CNC(=O)N(C)c1nnc(C(C)(C)C)s1 ?
Reply: inactive

Task item: Could you check what this test reported for CCOc1nc(C(Cl)(Cl)Cl)ns1 ?
Reply: active

---

test: Tanguay_ZF_120hpf_TRUN_legacy: (Legacy) Oregon State University Tanguay Lab 120 Hour Post-fertilization zebrafish Assay for Truncated Body (AID 2283655)
Results filed as inconclusive are left out. The source made the active and inactive calls. The calls were made as follows: active = hit-call score of the fitted dose curve at least 0.9, where 1 is the maximum; inconclusive = response in the unintended direction; inactive = score below 0.9.
// classify into True for active, False for inactive

Here are 5 molecules together with their reported answers.
molecule	class_name
CCCN(CC)CC1COC2(CCC(C(C)(C)C)CC2)O1 (configuration not stated)	False
CC1(C)C(C(=O)OC(C#N)c2cccc(Oc3ccccc3)c2)C1(C)C (configuration not stated)	False
CC1(C)CON(Cc2ccccc2Cl)C1=O	False
CCSC(=O)N1CCCCCC1	False
COCC(C)N(C(=O)CCl)c1c(C)csc1C (configuration not stated)	True

Task item: Could you check what this test reported for CCNP(=S)(OC)O/C(C)=C/C(=O)OC(C)C (configuration not stated) ?
Reply: False

Task item: Could you check what this test reported for CC(C)C1(C)N=C(c2ncccc2C(=O)O)NC1=O (configuration not stated) ?
Reply: False

Task item: Could you check what this test reported for N#Cc1c[nH]cc1-c1cccc2c1OC(F)(F)O2 ?
Reply: False

Task item: Could you check what this test reported for COP(=S)(OC)Oc1ccc([N+](=O)[O-])c(C)c1 ?
Reply: False

Task item: Could you check what this test reported for Cc1c(COC(=O)[C@@H]2[C@H](/C=C(\Cl)C(F)(F)F)C2(C)C)cccc1-c1ccccc1 ?
Reply: False

Task item: Could you check what this test reported for COc1cc(OC)nc(NC(=O)NS(=O)(=O)c2ncccc2OCC(F)(F)F)n1 ?
Reply: False

Task item: Could you check what this test reported for Nc1c(Cl)c(F)nc(OCC(=O)O)c1Cl ?
Reply: False

---

Experiment: ATG_VDRE_CIS: Attagene CIS-FACTORIAL HepG2 Assay for human Vitamin D Receptor Element (VDRE) (AID 2282968)
Details: HepG2 VDRE cis-reporter transcription, actives raise or lower the signal
Procedure: ATG_CIS is a cell-based, multiplexed-readout assay that uses HepG2, a human liver cell line, with measurements taken at 24 hours after chemical dosing in a 24-well plate.ATG_VDRE_CIS is one of 52 assay component(s) measured or calculated from the ATG_CIS assay. […] This assay endpoint, ATG_VDRE_CIS, was analyzed with bidirectional fitting relative to DMSO as the negative control and baseline of activity. […]
Activity calls are given as the source filed them. The calls were made as follows: active = hit-call score of the fitted dose curve at least 0.9, where 1 is the maximum; inactive = score below 0.9.
// classify into active, inactive

Here are 3 molecules together with their reported answers.
molecule	class_name
CNC(=O)Oc1cccc2ccccc12	inactive
CCSC(=O)N1CCCCCC1	inactive
COc1cc(Cl)c(OC)cc1Cl	inactive

Okay, next one:
Task item: Could you check what this test reported for COC(=O)N(C(=O)N1CO[C@@]2(C(=O)OC)Cc3cc(Cl)ccc3C2=N1)c1ccc(OC(F)(F)F)cc1 ?
Reply: active
